Hey, just so you know, these numbers are from PubChem BioAssay (NCI).

Test system: SF-539 CNS
Test: NCI tumour cell line growth inhibition, 48 h
Kindly supply the reported TGI values for the records listed here.

COC(=O)/N=[N+](\[O-])C(c1ccc(OC)cc1)C1CCCCC1 (configuration not stated) ... > 48.3 µM
COc1ccc(C(C#N)NNc2nc(C)cc(=O)[nH]2)cc1OC (configuration not stated) ... > 100 µM
CC1(C)CC(=O)c2c(nc3ccc4ccccc4c3c2-c2ccc(NC(=O)CCC(=O)Nc3ccc(-c4c5c(nc6ccc7ccccc7c46)CC(C)(C)CC5=O)cc3)cc2)C1 ... > 100 µM
c1cc2c(c(-c3c4ccccc4nc4ccccc34)c1)CC1(CC2)OCCO1 ... > 100 µM
CN(CCOc1ccc(C#N)cc1)CCOc1ccc(C#N)cc1 ... > 100 µM
COC(=O)c1c(C)cccc1CC1Cc2c(C)cccc2C1=O (configuration not stated) ... > 100 µM

Please look at the items below and tell me TGI for each one, in order.
1. COc1ccc(CC2NC(=O)/C=C/CC(C(C)C3OC3c3ccccc3)OC(=O)C(CC(C)C)OC(=O)C(C)CNC2=O)cc1Cl (configuration not stated)
2. CC1=C(O)C(=O)C2C(=O)C1C(C)C2c1ccc(Cl)cc1 (configuration not stated)
3. COc1ccc(CCNC(=O)Cc2cc(OC)c(OC)cc2CO)cc1OC
4. Cc1cccc(C(C)C)c1NC(=O)C(=O)CC(=O)c1c(C)n([O-])c2ccccc2[n+]1=O
5. Fc1ccc2[nH]c3c(NCCCN4CCOCC4)ncnc3c2c1
6. CNC(=O)c1[nH]cnc1/N=N/N(C)N

1. 4.43e-05 µM
2. > 100 µM
3. > 100 µM
4. 83.8 µM
5. 62.7 µM
6. > 100 µM

---

Tested on: CAKI-1 renal
Assay: NCI tumour cell line growth inhibition, 48 h; in the data active = GI50 below about 0.43 µM; inactive = the rest
Bench note: report the call from active, inactive

Consider the following illustrative entries.
COc1cc(CNc2ccc(C(C)C)cc2)cc(OC)c1OC ... inactive
C[C@@H]1COCCN1c1cc(C2(S(C)(=N)=O)CC2)nc(-c2ccnc3[nH]ccc23)n1 (some centres undefined) ... inactive
COc1cc[nH]c1/C=C1\C(=O)Nc2ccc(F)c(I)c21 ... inactive

Please look at the following compound next.
State the result this test recorded for `CN(C)C(=S)N=Nc1c(O)[nH]c2ccccc12` .
active

---

Test system: MDA-MB-231 breast
Assay: NCI tumour cell line growth inhibition, 48 h
ASSAY METRIC: GI50

Use the examples below as a reference point.
ClCc1c(Cl)c(Cl)c(Cl)c(CCl)c1Cl ... 1.81 µM
Fc1ccc2[nH]c3c(NCCCN4CCOCC4)ncnc3c2c1 ... 23.6 µM

We next turn to a different compound, shown below.
Item C=C1CC[C@@H]2[C@](C)(COC(C)=O)[C@H](OC(C)=O)CC[C@@]2(C)[C@@H]1CC(Nc1ccc(S(=O)(=O)Nc2nccc(C)n2)cc1)C1=CCOC1=O (stereo partly drawn) with MDA-MB-231 breast - GI50?
3.62 µM

---

Test system: K-562 leukemia
Assay: NCI tumour cell line growth inhibition, 48 h
Kindly supply the reported TGI values for the records listed here.

Use the examples below as a reference point.
CC(C)CC1=[N+]=C(NC#N)N=C(CCC(=O)Nc2ccccc2[N+](=O)[O-])C1 ... > 100 µM
CC(=O)[O-].CC(=O)[O-].[NH2-].[Pt+2].c1ccc2cnccc2c1 ... 51.8 µM

Please look at the items below and tell me TGI for each one, in order.
1. Brc1ccccc1-c1ncc(-c2ccccc2)o1
2. Cc1ccc(Nc2cc(=O)[nH]c(=S)[nH]2)cc1
3. NC(C(=O)[O-])C(=O)[O-].NC1CCCCC1N.[Pt+4]

1. > 100 µM
2. > 100 µM
3. > 100 µM
